Task for the reader: assign each of the following compounds its reported IC50.
targetSystem: Transient receptor potential cation channel subfamily V member 1 (Homo sapiens, UniProt Q8NER1)
Sequence (Q8NER1 whole entry): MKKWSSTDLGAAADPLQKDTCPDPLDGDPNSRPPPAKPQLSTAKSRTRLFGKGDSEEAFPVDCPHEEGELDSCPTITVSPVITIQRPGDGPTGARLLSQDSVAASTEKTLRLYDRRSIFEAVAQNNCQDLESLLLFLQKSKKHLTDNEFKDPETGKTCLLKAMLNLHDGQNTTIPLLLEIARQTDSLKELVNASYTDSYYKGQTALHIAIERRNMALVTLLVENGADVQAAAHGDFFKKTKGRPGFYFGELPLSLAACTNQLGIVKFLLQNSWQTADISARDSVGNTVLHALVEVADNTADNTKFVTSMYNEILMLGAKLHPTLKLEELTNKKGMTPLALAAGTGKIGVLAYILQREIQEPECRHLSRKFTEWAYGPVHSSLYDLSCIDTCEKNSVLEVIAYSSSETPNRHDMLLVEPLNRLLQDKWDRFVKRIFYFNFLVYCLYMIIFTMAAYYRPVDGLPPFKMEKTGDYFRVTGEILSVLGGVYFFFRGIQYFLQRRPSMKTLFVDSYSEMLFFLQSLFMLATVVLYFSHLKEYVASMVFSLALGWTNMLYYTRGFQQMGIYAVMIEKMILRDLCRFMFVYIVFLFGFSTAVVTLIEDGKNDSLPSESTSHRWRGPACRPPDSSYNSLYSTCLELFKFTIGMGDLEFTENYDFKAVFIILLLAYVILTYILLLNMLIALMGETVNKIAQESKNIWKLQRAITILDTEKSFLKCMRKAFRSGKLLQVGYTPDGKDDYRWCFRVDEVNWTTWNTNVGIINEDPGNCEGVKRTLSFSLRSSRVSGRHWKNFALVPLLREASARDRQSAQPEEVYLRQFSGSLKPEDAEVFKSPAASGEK
protocolNotes: Antagonist activity against human TRPV1 expressed in T-REx HEK cells assessed as inhibition of capsaicin-induced increase in intracellular Ca2+ accumulation pre-incubated for 3 mins prior to capsaicin stimulation by Fluo-4 AM dye based fluorescence assay
Type: cell-based
recordedConditions: read-out: IC50

I would be grateful if you could share the reported IC50 for `CC[C@H]1C[C@H]2CN3CCc4c([nH]c5ccc(OC)cc45)[C@](CO)(C2)[C@H]13` . 200 µM

I would be grateful if you could share the reported IC50 for `CC[C@H]1C[C@H]2CN3Cn4c(c(COC)c5ccc(OC)cc54)[C@](C(=O)OC)(C2)[C@H]13` . > 200 µM

I would be grateful if you could share the reported IC50 for CC[C@H]1C[C@@H]2CN3CCc4c([nH]c5ccccc45)[C@](C(=O)OC)(C2)[C@H]13 [CORONARIDINE] . 170 µM

I would be grateful if you could share the reported IC50 for COC(=O)[C@@]12C[C@@H]3C[C@H]([C@H](C)O)[C@@H]1N(CCc1c2[nH]c2ccc(OC)cc12)C3 [VOACRISTINE] . > 200 µM

I would be grateful if you could share the reported IC50 for Oc1cc2c(cc1O)CN(C(=S)NCCc1ccc(Cl)cc1)CCC2 [CAPSAZEPINE] . 0.068 µM
